Assay: Ability of an acid to produce a stable hCT solution (stored 24 hours at 25° C., solution remains clear)
Assay type: physicochemical
Settings: aqueous hCT solution with the acid, no salt or buffer
ATTRIBUTE MEASURED: acid forms stable hCT solution

> print(dat)
                                   compound              attribute.measured   reported.measurement
1  O=C(O)C(O)C(O)C(=O)O [L-α-tartaric acid]  acid forms stable hCT solution  form stable solutions
2                                   CC(=O)O  acid forms stable hCT solution  form stable solutions
3      O=C(O)CN(CCN(CC(=O)O)CC(=O)O)CC(=O)O  acid forms stable hCT solution  form stable solutions
